The entries below are paired with their reported inhibition at 82.5 µM.
target: Rns (Escherichia coli)
protocol_text: % Inhibition at 82.5 μM, Rns
Assay type: cell-based, Enterotoxigenic E. coli
run_conditions: read-out: % Inhibition at 82.5 μM Rns
Provide the reading as a plain figure in %.

Incoming: Param readout= inhibition at 82.5 µM; system= Rns (Escherichia coli); entry= CCCCN1C=C(c2cccc(C)n2)C(C[N+](=O)[O-])c2ccccc21 (stereo not drawn) ; returns value.
Outgoing: 0

----------
The entries below are paired with their reported inhibition at 82.5 µM.
target: UniProtKB P09377
Sequence (P09377 whole entry): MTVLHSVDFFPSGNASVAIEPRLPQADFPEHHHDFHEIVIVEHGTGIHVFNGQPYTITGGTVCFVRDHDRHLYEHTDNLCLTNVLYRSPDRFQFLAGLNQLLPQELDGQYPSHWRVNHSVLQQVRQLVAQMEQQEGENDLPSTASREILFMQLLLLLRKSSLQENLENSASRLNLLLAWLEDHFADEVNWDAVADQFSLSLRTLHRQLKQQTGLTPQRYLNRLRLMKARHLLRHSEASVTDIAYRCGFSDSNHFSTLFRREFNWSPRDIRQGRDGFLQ
protocol_text: % Inhibition at 82.5 μM, RhaS
Type: cell-based, E. coli
Provide the reading as a plain figure in %.

# count of solved cases: 5
CCOC(=O)C(C(=O)OCC)C1C(c2ccc3ccccc3n2)=CN(C)c2ccccc21 (stereo not drawn) [Compound A2] :: 80
Clc1ccc(C[n+]2cc(-c3ccc4ccccc4n3)cc3ccccc32)cc1 [Compound I03] :: 60
CCCC[n+]1cc(-c2ccc3ccccc3n2)cc2ccccc21 [Compound I02] :: 90
C[n+]1sc(Nc2ccccc2)nc1-c1ccccc1 [JS01] :: 100
CN1C=C(c2ccc3ccccc3n2)C(C#N)c2ccccc21 (stereo not drawn) [Compound C4] :: 70

Incoming: Param readout= inhibition at 82.5 µM; system= UniProtKB P09377; entry= CCCCN1C=C(c2ccc3ccccc3n2)C(C[N+](=O)[O-])c2ccccc21 (stereo not drawn) [Compound A07] ; returns value.
Outgoing: 90

Incoming: Let us now turn to CCCC[n+]1cc(-c2ccc3ccccc3c2)cc2ccccc21 [Compound I14]
Outgoing: 90

Incoming: Let us now turn to O=[N+]([O-])CC1C(c2ccc3ccccc3n2)=CN(Cc2ccccc2)c2ccccc21 (stereo not drawn) [Compound D3]
Outgoing: 60

Incoming: Let us now turn to CCCCCC[n+]1cc(-c2ccc3ccccc3n2)cc2ccccc21 [Compound I12]
Outgoing: 90

Incoming: Let us now turn to CC(C)[n+]1cc(-c2ccc3ccccc3n2)cc2ccccc21 [Compound I10]
Outgoing: 80

----------
target: Rns (Escherichia coli)
protocol_text: % Inhibition at 82.5 μM, Rns
Assay type: cell-based, Enterotoxigenic E. coli
run_conditions: read-out: % Inhibition at 82.5 μM Rns
Decide using inhibition at 82.5 µM: a value greater than or equal to 80% is TRUE, a smaller one is FALSE.

These solved cases illustrate the format of a correct answer.
C[n+]1ccccc1/C=C/c1ccc(Br)cc1 [JS03] :: FALSE
CCCCCC[n+]1cc(-c2ccc3ccccc3n2)cc2ccccc21 [Compound I12] :: TRUE
C[n+]1sc(Nc2ccccc2)nc1-c1ccccc1 [JS01] :: TRUE
Cc1cccc(C2=CN(Cc3ccc(Cl)cc3)c3ccccc3C2C[N+](=O)[O-])n1 (stereo not drawn) [Compound A10] :: FALSE
CCN1C=C(c2ccc3ccccc3n2)C(C[N+](=O)[O-])c2ccccc21 (stereo not drawn) [Compound 2] :: FALSE
CCN1C=C(c2ccc3ccccc3n2)C(C#N)c2ccccc21 (stereo not drawn) [Compound A1] :: FALSE

Continue with the compound presented below.
Incoming: Confirm if inhibition at 82.5 µM reported for the compound CCCCN1C=C(c2cccc(C)n2)C(C#N)c2ccccc21 (stereo not drawn) [Compound A03] is 80% or above.
Outgoing: FALSE

----------
target: UniProt P09377
protocol_text: % Inhibition at 82.5 μM, RhaS
Assay type: cell-based, E. coli
reported_endpoint: inhibition at 82.5 µM
Phrase the answer as number then unit, nothing more needed.

CCCCN1C=C(c2ccc3ccccc3n2)C(C#N)c2ccccc21 (stereo not drawn) :: 30%
CCCCN1C=C(c2ccc3ccccc3n2)C(C)c2ccccc21 (stereo not drawn) :: 0%
CCN1C=C(c2ccc3ccccc3n2)C(C[N+](=O)[O-])c2ccccc21 (stereo not drawn) :: 90%

Incoming: Tell me the measured inhibition at 82.5 µM of `C[n+]1ccccc1/C=C/c1ccc(Br)cc1` , please.
Outgoing: 20%

Incoming: Let us now turn to `C=CCCC[n+]1cc(-c2ccc3ccccc3n2)cc2ccccc21`
Outgoing: 80%

Incoming: Let us now turn to CN1C=C(c2ccc3ccccc3n2)C(c2c(-c3ccccc3)[nH]c3ccccc23)c2ccccc21 (stereo not drawn) [Compound D2]
Outgoing: 10%

Incoming: Let us now turn to Cc1cccc(C2=CN(Cc3ccc(Cl)cc3)c3ccccc3C2C[N+](=O)[O-])n1 (stereo not drawn)
Outgoing: 30%

Incoming: Let us now turn to `CCC[n+]1cc(-c2ccc3ccccc3n2)cc2ccccc21`
Outgoing: 80%

Incoming: Let us now turn to `C[n+]1cc(-c2ccc3ccccc3n2)cc2ccccc21`
Outgoing: 94%

----------
target: UniProt:P0A2T1
protocol_text: Shigella virB-lacZ reporter gene assay
Assay type: cell-based, S. flexneri
Parameters: endogenously expressed VirF in a Shigella strain carrying a virB-lacZ reporter construct; endogenous in cells; host or cells: S. flexneri strain BS536 (virB-lacZ)
reported_endpoint: IC50

Incoming: Tell me the measured IC50 of CCCCN1C=C(c2ccc3ccccc3n2)C(C[N+](=O)[O-])c2ccccc21 (stereo not shown) [Compound 1] , please.
Outgoing: ~30 µM

----------
The entries below are paired with their reported inhibition at 82.5 µM.
target: VirF (Shigella flexneri, UniProt P0A2T1)
Sequence (P0A2T1 whole entry): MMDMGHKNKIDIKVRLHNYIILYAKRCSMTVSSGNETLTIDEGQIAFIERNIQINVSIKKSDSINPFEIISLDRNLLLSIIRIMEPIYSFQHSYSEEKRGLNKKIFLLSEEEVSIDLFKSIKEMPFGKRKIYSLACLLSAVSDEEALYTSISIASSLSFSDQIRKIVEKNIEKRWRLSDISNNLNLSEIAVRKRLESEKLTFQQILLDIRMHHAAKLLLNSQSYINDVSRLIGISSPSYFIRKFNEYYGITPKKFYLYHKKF
protocol_text: % Inhibition at 82.5 μM, VirF
Type: cell-based
run_conditions: read-out: % Inhibition at 82.5 μM VirF, 82.5 μM
Provide the reading as a plain figure in %.

# count of solved cases: 5
CCC[n+]1cc(-c2ccc3ccccc3n2)cc2ccccc21 [Compound I11] :: 100
CCCCCC[n+]1cc(-c2ccc3ccccc3n2)cc2ccccc21 [Compound I12] :: 100
C[n+]1ccccc1/C=C/c1ccc(Br)cc1 [JS03] :: 50
C=CCCC[n+]1cc(-c2ccc3ccccc3n2)cc2ccccc21 [Compound A25] :: 100
C[n+]1sc(Nc2ccccc2)nc1-c1ccccc1 [JS01] :: 100

Incoming: Tell me the measured inhibition at 82.5 µM of O=[N+]([O-])CC1C(c2ccc3ccccc3n2)=CN(Cc2ccccc2)c2ccccc21 (stereo not shown) [Compound D3] , please.
Outgoing: 70

Incoming: Let us now turn to CCCCCCCCC[n+]1cc(-c2ccc3ccccc3n2)cc2ccccc21 [Compound I13]
Outgoing: 100

Incoming: Let us now turn to CCCC[n+]1cc(-c2ccc3ccccc3c2)cc2ccccc21 [Compound I14]
Outgoing: 100

Incoming: Let us now turn to CCCCN1C=C(c2ccc3ccccc3n2)C(C#N)c2ccccc21 (stereo not shown) [Compound A01]
Outgoing: 20

Incoming: Let us now turn to CCOC(=O)CN1C=C(c2ccc3ccccc3n2)C(C[N+](=O)[O-])c2ccccc21 (stereo not shown) [Compound A3]
Outgoing: 10

----------
The entries below are paired with their reported inhibition at 82.5 µM.
target: VirF (Shigella flexneri, UniProt P0A2T1)
protocol_text: % Inhibition at 82.5 μM, VirF
Assay type: cell-based
run_conditions: read-out: % Inhibition at 82.5 μM VirF, 82.5 μM
Provide the reading as a plain figure in %.

CCN1C=C(c2ccc3ccccc3n2)C(C[N+](=O)[O-])c2ccccc21 (centres unmarked) [Compound 2] :: 100
C[n+]1cc(-c2ccc3ccccc3n2)cc2ccccc21 [Compound A24] :: 100
CCCCN1C=C(c2cccc(C)n2)C(C#N)c2ccccc21 (centres unmarked) [Compound A03] :: 0

Incoming: Tell me the measured inhibition at 82.5 µM of CCCCN1C=C(c2ccc3ccccc3n2)C(C[N+](=O)[O-])c2ccccc21 (centres unmarked) [Compound A07] , please.
Outgoing: 90

Incoming: Let us now turn to O=[N+]([O-])CC1C(c2ccc3ccccc3n2)=CN(Cc2ccc(Cl)cc2)c2ccccc21 (centres unmarked) [Compound A08]
Outgoing: 40

Incoming: Let us now turn to CN1C=C(c2ccc3ccccc3n2)C(C#N)c2ccccc21 (centres unmarked) [Compound C4]
Outgoing: 90

Incoming: Let us now turn to CN1C=C(c2ccc3ccccc3n2)C(c2c(-c3ccccc3)[nH]c3ccccc23)c2ccccc21 (centres unmarked) [Compound D2]
Outgoing: 40

Incoming: Let us now turn to CC(C)[n+]1cc(-c2ccc3ccccc3n2)cc2ccccc21 [Compound I10]
Outgoing: 100

----------
The entries below are paired with their reported inhibition at 82.5 µM.
target: Rns (Escherichia coli, UniProt P16114)
Sequence (P16114 whole entry): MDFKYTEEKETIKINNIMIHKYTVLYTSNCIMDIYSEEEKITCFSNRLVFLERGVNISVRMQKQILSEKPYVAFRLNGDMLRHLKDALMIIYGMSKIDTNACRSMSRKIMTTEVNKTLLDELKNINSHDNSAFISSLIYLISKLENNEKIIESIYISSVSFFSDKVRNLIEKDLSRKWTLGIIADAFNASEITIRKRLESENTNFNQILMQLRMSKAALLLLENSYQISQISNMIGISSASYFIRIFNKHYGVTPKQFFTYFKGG
protocol_text: % Inhibition at 82.5 μM, Rns
Format: cell-based, Enterotoxigenic E. coli
run_conditions: read-out: % Inhibition at 82.5 μM Rns
Provide the reading as a plain figure in %.

Incoming: Tell me the measured inhibition at 82.5 µM of `CCCCCCCCC[n+]1cc(-c2ccc3ccccc3n2)cc2ccccc21` , please.
Outgoing: 100

Incoming: Let us now turn to O=[N+]([O-])CC1C(c2ccc3ccccc3n2)=CN(Cc2ccccc2)c2ccccc21 (centres unmarked)
Outgoing: 60

Incoming: Let us now turn to CCCCN1C=C(c2ccc3ccccc3n2)C(C)c2ccccc21 (centres unmarked)
Outgoing: 10

Incoming: Let us now turn to `CCCC[n+]1cc(-c2ccc3ccccc3n2)cc2ccccc21`
Outgoing: 90

Incoming: Let us now turn to CCOC(=O)C(C(=O)OCC)C1C(c2ccc3ccccc3n2)=CN(C)c2ccccc21 (centres unmarked)
Outgoing: 80
